Reference source: PubChem BioAssay AID1159580

# Experiment Summary: chemical genetic growth profiling, strain panel (AID 1159580);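 note: tested at 20 µM; growth read once vehicle control cultures reached saturation at 30 °C; 1 = growth at the plate median or of vehicle wells; lower values mean less growth of the strain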
# Experimental Setup: S. cerevisiae deletion strains, growth OD, locus YJR066W, strain TOR1, hits give low values
The campaign covered roughly 5,500 compounds. About 2,000 (36%) were called active. Roughly 18% stayed inconclusive and do not appear here. The list shows a part of the results.
Measurement Name: normalized growth
Give the figure only, with no unit attached.

Quick note, normalized growth for Cc1ncc(CSSCc2cnc(C)c(O)c2CO)c(CO)c1O landed at 0.945

Quick note, normalized growth for CC(=O)OCC(=O)[C@@]1(O)[C@@H](C)CC2C3CCC4=CC(=O)C=C[C@]4(C)[C@@]3(F)[C@@H](O)C[C@@]21C (stereo partly specified) landed at 1

Quick note, normalized growth for OCCN1C[C@@H](O)[C@@H](O)C(O)C1CO (stereo partly specified) landed at 0.962

Quick note, normalized growth for CCN(CC)CCCC(C)Nc1ccnc2cc(Cl)ccc12 (stereo unspecified) landed at 0.979

Quick note, normalized growth for ClC1=C(Cl)C2(Cl)C3C4C=CC(C4)C3C1(Cl)C2(Cl)Cl (stereo unspecified) landed at 0.975

Quick note, normalized growth for CC(N)C(=O)OC(C)(C)Cc1ccc(Cl)cc1 (stereo unspecified) landed at 0.971

Quick note, normalized growth for C=Cc1c(C)c2cc3nc(c4c5[nH]c(cc6nc(cc1[nH]2)C(C)=C6CC)c(C)c5C(=O)[C@@H]4C(=O)OC)[C@@H](CCC(=O)OC/C=C(\C)CCCC(C)CCCC(C)CCCC(C)C)[C@@H]3C (stereo partly specified) landed at 0.934

Quick note, normalized growth for COCCc1ccc(OCC(O)CNC(C)C)cc1 (stereo unspecified) landed at 1.01

Quick note, normalized growth for COc1ccc2cc([C@H](C)CO)ccc2c1 landed at 0.935

Quick note, normalized growth for COc1ccc2c(c1)OCc1c-2oc2cc(OC)ccc12 landed at 0.876

Quick note, normalized growth for CC(=O)OCC(=O)[C@@]1(O)CCC2C3CCC4=CC(=O)CC[C@]4(C)C3C(=O)C[C@@]21C (stereo partly specified) landed at 0.973

* * *

# Experiment Summary: chemical genetic growth profiling, strain panel (AID 1159580);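 note: tested at 20 µM; growth read once vehicle control cultures reached saturation at 30 °C; 1 = growth at the plate median or of vehicle wells; lower values mean less growth of the strain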
# Experimental Setup: S. cerevisiae deletion strains, growth OD, locus YAL026C, strain drs2, hits give low values
Screen size: about 5,500 compounds; about 2,000 (36%) were called active. Roughly 18% stayed inconclusive and do not appear here. This is one part of the list.
Give measured normalized growth for each item. Keep answers brief.
Give the figure only, with no unit attached.

Quick note, normalized growth for CC(N)C(=O)OC(C)(C)Cc1ccc(Cl)cc1 (stereo not given) landed at 1.03

Quick note, normalized growth for COc1ccc2c(c1OC)C(=O)O[C@H]2[C@H]1c2cc3c(cc2CCN1C)OCO3 landed at 1.01

Quick note, normalized growth for COC1=C(OC)C(=O)C(C/C=C(\C)CC/C=C(\C)CC/C=C(\C)CC/C=C(/C)CC/C=C(\C)CC/C=C(\C)CC/C=C(\C)CC/C=C(\C)CC/C=C(\C)CCC=C(C)C)=C(C)C1=O landed at 0.97

Quick note, normalized growth for O=C(O)c1c2ccccc2cc2ccccc12 landed at 1.02

Quick note, normalized growth for COC1=CC(=O)C[C@@H](C)[C@]12Oc1c(Cl)c(OC)cc(OC)c1C2=O landed at 0.989
